Give measured Control value (%) for each item. Keep answers brief.
# Test system: late blight on tomato
# Type: in vivo, Plasmopara viticola
# ASSAY SETUP: tomato (Hofuku), therapeutic effect, sprayed after inoculation, active ingredient 100 ppm, disease severity 7 days after inoculation
Please reply with the bare figure in % and do not write the unit itself.

For the compound "CCOC(=O)Nc1cccc(CON=C(c2ccccc2)c2nnnn2C)n1" , what Control value (%) is on record?
90

For the compound "CCCCOC(=O)Nc1cccc(CON=C(c2ccc(F)cc2)n2nnnc2C)n1" , what Control value (%) is on record?
100

For the compound "Cc1nnnn1C(=NOCc1cccc(NC(=O)OC2CCCC2)n1)c1ccccc1" , what Control value (%) is on record?
100

For the compound "Cn1nnnc1C(=NOCc1csc(NC(=O)C(C)(C)C)n1)c1cccc(F)c1" , what Control value (%) is on record?
80

For the compound CCCCOC(=O)Nc1cccc(CON=C(c2ccccc2)n2nnnc2C)n1 [(19)-33] , what Control value (%) is on record?
100

For the compound "CC(C)C(=O)Nc1nc(CON=C(c2ccc(Cl)cc2)c2nnnn2C)cs1" , what Control value (%) is on record?
90

For the compound "Cc1nnnn1C(=NOCc1cccc(NC(=O)OC2CCCCC2)n1)c1ccccc1" , what Control value (%) is on record?
100

For the compound "CC(C)C(=O)Nc1cccc(CON=C(c2ccccc2)c2nnnn2C)n1" , what Control value (%) is on record?
100

For the compound "Cc1nnnn1C(=NOCc1csc(NC(=O)C(C)C)n1)c1ccccc1" , what Control value (%) is on record?
100

For the compound "CCCCCCOC(=O)Nc1nc(CON=C(c2ccccc2)c2nnnn2C)cs1" , what Control value (%) is on record?
80

For the compound "Cc1nnnn1C(=NOCc1csc(NC(=O)OC(C)(C)C)n1)c1cccc(F)c1" , what Control value (%) is on record?
80

For the compound "CCCCOC(=O)Nc1cccc(CON=C(c2ccc(C(C)(C)C)cc2)n2nnnc2C)n1" , what Control value (%) is on record?
80

For the compound "Cn1nnnc1C(=NOCc1cccc(NC(=O)OC2CCCCC2)n1)c1ccccc1" , what Control value (%) is on record?
100

For the compound "CCC(C)(C)OC(=O)Nc1cccc(CON=C(c2ccccc2)c2nnnn2C)n1" , what Control value (%) is on record?
100

For the compound "CCCCCC(=O)Nc1cccc(CON=C(c2ccc(C)cc2)c2nnnn2C)n1" , what Control value (%) is on record?
100

For the compound "CCCCOC(=O)Nc1nc(CON=C(c2ccccc2)n2nnnc2C)cs1" , what Control value (%) is on record?
80

For the compound "CCCCCOC(=O)Nc1cccc(CON=C(c2ccc(S(C)(=O)=O)cc2)n2nnnc2C)n1" , what Control value (%) is on record?
100

For the compound "CCCCOC(=O)Nc1cccc(CON=C(c2ccc([N+](=O)[O-])cc2)n2nnnc2C)n1" , what Control value (%) is on record?
100

For the compound "Cc1nnnn1C(=NOCc1cccc(NC(=O)C2CC2)n1)c1ccccc1" , what Control value (%) is on record?
90

For the compound "CCCCOC(=O)Nc1cccc(CON=C(c2ccc(C#N)cc2)n2nnnc2C)n1" , what Control value (%) is on record?
90

For the compound "CCCOC(=O)Nc1cccc(CON=C(c2ccccc2)c2nnnn2C)n1" , what Control value (%) is on record?
100

For the compound "Cn1nnnc1C(=NOCc1cccc(NC(=O)OCc2ccccc2)n1)c1ccccc1" , what Control value (%) is on record?
100

For the compound "CCCCOC(=O)Nc1cccc(CON=C(c2ccc(CC)cc2)n2nnnc2C)n1" , what Control value (%) is on record?
100

For the compound "Cn1nnnc1C(=NOCc1csc(NC(=O)C(C)(C)C)n1)c1ccc(Cl)cc1" , what Control value (%) is on record?
80

For the compound "Cn1nnnc1C(=NOCc1cccc(NC(=O)C2CC2)n1)c1ccc(Cl)cc1" , what Control value (%) is on record?
80

For the compound "CCCCCC(=O)Nc1nc(CON=C(c2ccccc2)c2nnnn2C)cs1" , what Control value (%) is on record?
100

For the compound "Cn1nnnc1C(=NOCc1cccc(NC(=O)Cc2ccccc2)n1)c1ccccc1" , what Control value (%) is on record?
100

For the compound "CCCCCCC(=O)Nc1cccc(CON=C(c2ccccc2)c2nnnn2C)n1" , what Control value (%) is on record?
100

For the compound "CCCC(=O)Nc1nc(CON=C(c2ccc(Cl)cc2)n2nnnc2C)cs1" , what Control value (%) is on record?
100

For the compound "Cn1nnnc1C(=NOCc1cccc(NC(=O)OC2CCCC2)n1)c1ccccc1" , what Control value (%) is on record?
100

For the compound "C=C(C)C(=O)Nc1nc(CON=C(c2ccccc2)c2nnnn2C)cs1" , what Control value (%) is on record?
100

For the compound "Cc1nnnn1C(=NOCc1cccc(NC(=O)C(C)C)n1)c1ccccc1" , what Control value (%) is on record?
100

For the compound "CCCCOC(=O)Nc1cccc(CON=C(c2ccc(OC)cc2)n2nnnc2C)n1" , what Control value (%) is on record?
80

For the compound "CCC(C)(C)OC(=O)Nc1cccc(CON=C(c2ccc(C)cc2)c2nnnn2C)n1" , what Control value (%) is on record?
100

For the compound "CCCC(=O)Nc1cccc(CON=C(c2ccccc2)c2nnnn2C)n1" , what Control value (%) is on record?
90

For the compound "Cc1nnnn1C(=NOCc1cccc(NC(=O)C(C)(C)C)n1)c1ccccc1" , what Control value (%) is on record?
80

For the compound "CCCC(=O)Nc1nc(CON=C(c2ccccc2)n2nnnc2C)cs1" , what Control value (%) is on record?
100

----------
# Tested on: late blight on tomato
# Assay type: in vivo, Plasmopara viticola
# ASSAY SETUP: tomato (Hofuku), therapeutic effect, sprayed after inoculation, active ingredient 100 ppm, disease severity 7 days after inoculation
Give measured Control value (%) for each item. Keep answers brief.
Please reply with the bare figure in % and do not write the unit itself.

Query the reported Control value (%) for late blight on tomato; item: "CCCCCOC(=O)Nc1cccc(CON=C(c2ccccc2C)c2nnnn2C)n1"
100

Query the reported Control value (%) for late blight on tomato; item: "COc1ccc(C(=NOCc2csc(NC(=O)C(C)(C)C)n2)c2nnnn2C)cc1"
90

Query the reported Control value (%) for late blight on tomato; item: "Cn1nnnc1C(=NOCc1csc(NC(=O)CC(C)(C)C)n1)c1ccccc1"
100

Query the reported Control value (%) for late blight on tomato; item: "CCCCOC(=O)Nc1cccc(CON=C(c2ccc(Cl)cc2)n2nnnc2C)n1"
100

Query the reported Control value (%) for late blight on tomato; item: "CCCCOC(=O)Nc1cccc(CON=C(c2ccccc2C)c2nnnn2C)n1"
100

Query the reported Control value (%) for late blight on tomato; item: "CC(=O)Nc1cccc(CON=C(c2ccccc2)n2nnnc2C)n1"
80

Query the reported Control value (%) for late blight on tomato; item: "Cn1nnnc1C(=NOCc1cccc(NC(=O)c2ccccc2)n1)c1ccccc1"
100

Query the reported Control value (%) for late blight on tomato; item: "CCCOCCC(=O)Nc1nc(CON=C(c2ccccc2)c2nnnn2C)cs1"
90

Query the reported Control value (%) for late blight on tomato; item: "CCCCCC(=O)Nc1cccc(CON=C(c2ccccc2)n2nnnc2C)n1"
100

Query the reported Control value (%) for late blight on tomato; item: "Cc1nnnn1C(=NOCc1csc(NC(=O)c2ccccc2)n1)c1ccccc1"
80

Query the reported Control value (%) for late blight on tomato; item: "CCCCOC(=O)Nc1cccc(CON=C(c2cccc(Cl)c2)n2nnnc2C)n1"
100

Query the reported Control value (%) for late blight on tomato; item: "CCCCCOC(=O)Nc1cccc(CON=C(c2ccccc2)n2nnnc2C)n1"
100

Query the reported Control value (%) for late blight on tomato; item: "CC(C)OC(=O)Nc1cccc(CON=C(c2ccc(F)cc2)c2nnnn2C)n1"
80

Query the reported Control value (%) for late blight on tomato; item: "COc1ccc(C(=NOCc2cccc(NC(=O)C3CC3)n2)c2nnnn2C)cc1"
80

Query the reported Control value (%) for late blight on tomato; item: "CCCCCC(=O)Nc1nc(CON=C(c2ccccc2)n2nnnc2C)cs1"
100

Query the reported Control value (%) for late blight on tomato; item: "CCCCCCOC(=O)Nc1cccc(CON=C(c2ccccc2)c2nnnn2C)n1"
100

Query the reported Control value (%) for late blight on tomato; item: "Cn1nnnc1C(=NOCc1csc(NC(=O)OCc2ccccc2)n1)c1ccccc1"
90

Query the reported Control value (%) for late blight on tomato; item: "CCCC(=O)Nc1cccc(CON=C(c2ccc(Cl)cc2)n2nnnc2C)n1"
100

Query the reported Control value (%) for late blight on tomato; item: "CCOCC(=O)Nc1nc(CON=C(c2ccccc2)c2nnnn2C)cs1"
80
